Recorded values, source ChEMBL document CHEMBL4888484.

Give measured Z score for each item. Keep answers brief.
# System: Plasmodium falciparum
# protocol-summary: Primary screen in NF54 nanoGlo assay, in single point, at 2uM, 72h; a lower Z score goes with more inhibition
# Format: functional, Erythrocyte
# condition-notes: timepoint 72 hour
Out of some 150,000 compounds screened, about 540 (0.36%) showed an effect of 50% or more. Only a selection was taken, and strong results are over-represented in it overall.
Format: numeric value only, no unit, no commentary.

Per the records, this compound ( O=C(Nc1ccc(Br)cn1)c1ccc(-c2ccc(Cl)c(Cl)c2)o1 ) has Z score equal to -3.51

The compound listed as Cc1ccc(C(=O)N2CCC3(CCc4nn(Cc5ccccc5)c(=O)n4CC3)CC2)s1 shows Z score equal to 0.82

Form field Z score, entry c1cc(-c2nc3cc4ccccc4cc3[nH]2)nc(-c2nc3cc4ccccc4cc3[nH]2)c1 : -18.05

For record Nc1nc(-c2ccccc2)c2cc3c(nn12)C[C@H](c1ccc(F)cc1)CC3=O the listed Z score is 0.5

// Z score value for Cn1nccc1NC(=O)Cn1ncc2cc(-c3cccc4cccnc34)ccc21 : -0.05

Just so you know, measured Z score for CCN(Cc1noc(C2CCC2)n1)Cc1ccccc1C#N came out at 0.12

Item: NC(=O)[C@@H]1CN(Cc2ccc(-c3ccc(Cl)cc3)s2)CCO1 | Z score: 1.78

The measured Z score associated with CCc1ncnc(N2CC[C@H](Cc3nnn[nH]3)C2)c1F reads 1.77

In plain terms, c1ccc(C2=NN(c3ccc(-c4cc(-c5ccccc5)[n+](-c5ccccc5)c(-c5ccccc5)c4)cc3)[C@H](c3ccccc3)C2)cc1 has a documented Z score of -14.02

# compound O=C(Nc1cccnc1)c1ccc(-c2ccc(Cl)c(Cl)c2)o1 ; its Z score = -16.5
